test system: MCF7 breast; assay: NCI-60 one-dose screen, 48 h (100 = growth as untreated, 0 = no growth, -100 = all killed); settings: 10 µM unless noted
Compounds without any hit were thinned out: in the full panel of roughly 83,000, 20% have a hit.
readout: growth (%)
Your answer is read as %, so omit the unit and give the number.

Request: Test system MCF7 breast; read-out growth; what value for `Cc1nc2cc(O)c(O)cc2cc1Oc1ccc(NC(=O)Nc2ccc(Cl)c(Cl)c2)cc1` ?
Result: 76.2

Next:
Request: Query the reported growth for MCF7 breast; item: `CCCCNC(=O)c1cc([N+](=O)[O-])cc(C2CCCCC2)c1O`
Result: 39.3

Request: State its growth on MCF7 breast: `O=C1NC(=O)/C(=C/c2c(-c3ccccc3)nc3sc(COc4ccccc4)nn23)S1`
Result: 83.5

Request: Form entry - test system: MCF7 breast; read-out: growth; compound: `CCN(CC)CCCN1C(=O)c2c(c(C)c3c(oc4ccc(O)cc43)c2C)C1=O`
Result: 65.8

Request: Give growth (MCF7 breast) of the following compound: `c1nc2ccc(-c3cc4ccc5[nH]ncc5c4c4c3CCCC4)cc2[nH]1`
Result: 59

* * *

tested on: HS 578T breast; experiment: NCI-60 one-dose screen, 48 h (100 = growth as untreated, 0 = no growth, -100 = all killed); details: 10 µM unless noted
The panel holds about 83,000 compounds, 20% with a hit somewhere; the sample as a whole holds those more often.
readout: growth (%)
Provide the reading as a plain figure in %.

Request: Kindly state the measured growth obtained for `COc1cc(OC)c(C(=O)C(CN(C)C)CN(C)C)cc1OC` with HS 578T breast.
Result: 108

Request: Provide value of growth for this record tested with HS 578T breast: `Cc1ccc(CNc2ccc3nc(CCC(C)C)[nH]c3c2)cc1`
Result: 96.3

More entries:
Request: For HS 578T breast, provide growth of CCCn1cnc2c(c1=N)C(c1ccc(F)cc1)c1sc3c(F)cccc3c1O2 (stereo not given) please.
Result: 28.7

Request: Under HS 578T breast: growth value of `Cc1ccc(C)c(/C=C2\CN(C(=O)OC(C)(C)C)C/C(=C\c3cc(C)ccc3C)C2=O)c1` ?
Result: 43.9

Request: Under HS 578T breast: growth value of Cn1c2c(c3ccc(Cl)c(Cl)c31)C(C#N)C(C)(C)NC2=O (stereo not given) ?
Result: 34.1

* * *

system: 786-0 renal; experiment: NCI-60 one-dose screen, 48 h; details: 10 µM unless noted
This is part of a sample that, as a whole, favours compounds with a hit. Of some 83,000 tested, about 20% had one in any assay. Activity calls are given as the source filed them. How the source made its calls: active means growth percent below 10; inactive means the rest.
Response enum: 1.0 for active, 0.0 for inactive

Request: Could you kindly confirm the outcome this assay logged for `CCN(CC)CCN1C(=O)c2cccc3c(/C=C/CN4C(=O)c5cccc6cccc(c56)C4=O)ccc(c23)C1=O` ?
Result: 1.0

Request: Hey, what did the test say about `O=C1/C(=C/c2ccccc2F)CN(C(=O)C(Cl)Cl)C/C1=C\c1ccccc1F` ?
Result: 1.0

Request: Dear colleague, could you share the recorded outcome for `Cc1ccc(NC(=O)Cn2c(Br)nc3c2c(=O)n(C)c(=O)n3C)cc1` when you have a moment?
Result: 1.0

Request: How was `Cc1ccc(-c2nc(N3CCNCC3)c3oc(-c4ccc(C)cc4)nc3n2)cc1` classified in this test?
Result: 1.0

Continuing:
Request: Tell me the assay call for `O=C(/C=C/c1ccccc1)c1ccc(Nc2nc(Nc3ccc(F)cc3)nc(Nc3ccc(Cl)cc3)n2)cc1` please.
Result: 0.0

Request: Kindly provide the recorded test outcome for the following molecule: `Cn1cc(-c2ccc(-c3cn(C)c4ccc(Cl)cc34)[nH]2)c2cc(Cl)ccc21`
Result: 0.0

Request: Answer briefly: the call reported for `CSc1nc(C)c([N+](=O)[O-])c(N)n1` in this assay.
Result: 0.0

Request: // return assay outcome for `C=CN(C(=O)N1CCN(c2cc3c(cc2F)c(=O)c(C(=O)O)cn3C2CC2)CC1)c1nc(-c2ccc(OC)cc2)cs1`
Result: 0.0

Request: Tell me the recorded outcome of this test for Cn1c2c(c3ccc(Cl)c(Cl)c31)C(C#N)C(C)(C)NC2=O (centres undefined) .
Result: 0.0

* * *

system: NCI-H322M lung; experiment: NCI-60 one-dose screen, 48 h (100 = growth as untreated, 0 = no growth, -100 = all killed); conditions: 10 µM unless noted
This is part of a sample that, as a whole, favours compounds with a hit. Of some 83,000 tested, about 20% had one in any assay.
Each entry below lists one item and its recorded growth value.
Respond with the bare value in %.

Request: What is its growth for NCI-H322M lung? Entry: `COc1ccc(N2CCN(C(=O)c3sc4nc(C)c(Br)c(C)c4c3N)CC2)cc1`
Result: 88

Request: State its growth on NCI-H322M lung: `Fc1cccc(-c2ccc3c(c2)C2(CCNCC2)CN3)c1`
Result: 101

Request: Observed growth on NCI-H322M lung for `O=c1c2ccccc2c(=O)c2c1sc1c(=O)c3ccc(O)cc3c(=O)c12` , please.
Result: -95.9

Further cases:
Request: API: value(readout= growth, system= NCI-H322M lung, query= `O=S(=O)(Nc1cc(Sc2cccc3cccnc23)c(O)c2ccccc12)c1ccccc1` )
Result: 28.3

Request: Record lookup: for NCI-H322M lung, what growth belongs to `COc1cccc(Nc2ncnc3cc(NC(=O)CCl)ccc23)c1` ?
Result: 37.5

* * *

test system: SK-MEL-28 melanoma; assay: NCI-60 one-dose screen, 48 h (100 = growth as untreated, 0 = no growth, -100 = all killed); details: 10 µM unless noted
Compounds without any hit were thinned out: in the full panel of roughly 83,000, 20% have a hit.
growth vs 80%: less than gives 1.0; not less than gives 0.0.

Request: Confirm or reject: growth of `O=C(NCc1cccc(CNC(=O)Nc2nc3ccccc3[nH]2)c1)Nc1nc2ccccc2[nH]1` lies strictly below 80%
Result: 1.0

Request: Please let me know if `Oc1ccc(/C=C/c2ccc(O)cc2)cc1` shows growth below 80%.
Result: 1.0

Request: # TODO verify growth < 80% strictly for this compound: `CN(C)CCN1C(=O)c2cccc3c(/C=C/CN4C(=O)c5cccc6cccc(c56)C4=O)ccc(c23)C1=O`
Result: 1.0

Next:
Request: Given the entry `Fc1ccc(Cn2cc(CSc3nc4ccccc4o3)nn2)cc1` , would its reported growth be below 80%?
Result: 0.0

* * *

tested on: MOLT-4 leukemia; experiment: NCI-60 one-dose screen, 48 h (100 = growth as untreated, 0 = no growth, -100 = all killed); settings: 10 µM unless noted
The panel holds about 83,000 compounds, 20% with a hit somewhere; the sample as a whole holds those more often.
growth class ranges: bin A: < 40%; bin B: ≥ 40% and < 80%; bin C: ≥ 80%

See these solved cases before continuing.
Request: Sort into band: `O=C(Nc1ccc(Cl)cc1)Oc1c(Cl)c(Cl)c(Cl)c(Cl)c1Cl`
Result: bin C

Request: Which category does the recorded growth put `CN1C(=O)/C(=C/c2ccc(C(=O)Nc3ncc(Cc4cccc(Cl)c4)s3)cc2)SC1=S` in?
Result: bin B

Request: Could you place `C=CCn1c(SCC(=O)Nc2ccc(/C(C)=N/O)cc2)nnc1-c1cc(-c2ccc(S(N)(=O)=O)cc2)nc2ccccc12` in its proper category? Many thanks.
Result: bin A

Request: Exercise: read the entry CO[C@H](C(=O)[C@@H](O)[C@@H](C)O)[C@@H]1Cc2cc3cc(O[C@H]4C[C@@H](O[C@H]5C[C@@H](O)[C@H](O)C(C)O5)[C@H](O)C(C)(O)O4)cc(O)c3c(O)c2C(=O)[C@H]1O[C@H]1C[C@@H](O[C@H]2C[C@@H](O[C@H]3C[C@@H](OC)[C@H](O)C(C)O3)[C@@H](O)C(C)O2)[C@H](O)C(C)O1 (stereo partly specified) and state which class it falls under.
Result: bin A

Request: Input `CC1=C2[C@@H](CC1)[C@]1(C)O[C@@](C3CCCCC3)(C[C@H]1OC(=O)CO)[C@H]2OC(=O)/C=C/c1ccccc1` ; output its category
Result: bin B

Request: Would you mind sorting `COc1ccc(NC(=O)Nc2ccc(OCCCCCC(=O)NO)cc2)cc1` into the appropriate category?
Result: bin C

Request: Class label required: `C=C1C(=O)O[C@H]2[C@H]1CC/C(COC(=O)/C=C\C(=O)NCc1ccc(Cn3c(=O)sn(CCCCC)c3=O)cc1)=C\CC[C@@]1(C)O[C@@H]21`
Result: bin A

Request: Form field 'band' for COc1ccc(/C=C/C(c2cc(OC)c(OC)c(OC)c2)n2ccnc2)cc1O (stereo unspecified)
Result: bin A

New cases:
Request: Lab note: which band did `CCOC(=O)c1c(C)nc2ccccc2c1/C=C/c1cccs1` land in?
Result: bin B

Request: Form: Item = `Cc1cccc(N2CCC(=O)NC2=S)c1` ; Class = ?
Result: bin C

Request: Class (by measured growth) for `CN(Cc1cc(Br)cc(Br)c1O)Cc1cc(Br)cc(Br)c1O`
Result: bin A

Request: Dear colleague, I would appreciate it if you could identify the bin for `C=C(C)[C@@H]1CCC[C@]2(C(=O)N3CCN(C)CC3)CC[C@]3(C)[C@@H](CC[C@@H]4[C@@]5(C)CC/C(=N\NC(=O)c6ccncc6)C(C)(C)[C@@H]5CC[C@]43C)[C@@H]12` and reply at your convenience.
Result: bin B

Request: Into which bin does this compound go? `CCCC(CC)(C(=O)Nc1ccc2nc(C)cc(N)c2c1)C(=O)Nc1ccc2nc(C)cc(N)c2c1`
Result: bin C
